- Tested on: AncSR1_Alt4
- ASSAY_COMMENT: luciferase reporter assay, alternative reconstruction AncSR1_Alt4
- Format: cell-based
- REPORTED_CONDITIONS: Alt4, Fig. S5B
PROPERTY_LABEL: EC50 (µM)

{"columns": ["CHEMICAL_STRUCTURE", "PROPERTY_LABEL", "UNIT_OF_MEASUREMENT", "OBS_VALUE"],
 "data": [
  ["C[C@]12CC[C@@H]3c4ccc(O)cc4CC[C@H]3[C@@H]1C[C@@H](O)[C@@H]2O", "EC50", "µM", 2.01],
  ["C[C@]12CC[C@@H]3c4ccc(O)cc4CC[C@H]3[C@@H]1CC[C@@H]2O", "EC50", "µM", 0.316],
  ["C[C@]12CC[C@@H]3c4ccc(O)cc4CC[C@H]3[C@@H]1CCC2=O", "EC50", "µM", 0.844]
]}
